Origin of the recorded values: paper PMC10397247

Target: T1, 4H1899-bH
T1 chain: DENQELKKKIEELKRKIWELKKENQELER
Test: two-hybrid library CCNG1;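 also: natural log of median RNA to DNA barcode read ratio; higher means stronger binding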
We begin with a simple list: items and their reported interaction score.
value kind: interaction score

binder="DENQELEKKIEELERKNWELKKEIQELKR [4H1338-bH]" value_kind="interaction score" recorded_number=-0.277
binder="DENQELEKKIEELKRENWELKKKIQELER [4H1373-bH]" value_kind="interaction score" recorded_number=-2
binder="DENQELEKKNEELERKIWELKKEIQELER [4H1449-bH]" value_kind="interaction score" recorded_number=-0.126
binder="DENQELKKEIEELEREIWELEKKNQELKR [4H1544-bH]" value_kind="interaction score" recorded_number=1.61
binder="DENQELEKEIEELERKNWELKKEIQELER [4H1081-bH]" value_kind="interaction score" recorded_number=-0.674
binder="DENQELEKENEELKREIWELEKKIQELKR [4H1222-bH]" value_kind="interaction score" recorded_number=0.852
binder="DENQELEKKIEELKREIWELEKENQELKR [4H1348-bH]" value_kind="interaction score" recorded_number=0.883
binder="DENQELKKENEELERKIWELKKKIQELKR [4H1710-bH]" value_kind="interaction score" recorded_number=0.26
binder="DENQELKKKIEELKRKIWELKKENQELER [4H1899-bH]" value_kind="interaction score" recorded_number=0.337
